protocol-conditions: in water, 278.15 K
metric-name: solubility (mole fraction)
Answers are plain numbers.

Item under review: Nc1nc(Cl)c2[nH]cnc2n1 . Reported solubility (mole fraction)?
3.28e-06

---

protocol-conditions: in water, 323.15 K
metric-name: solubility (mole fraction)
Answers are plain numbers.

Could you share which solubility (mole fraction) value was measured for Nc1nc(Cl)c2[nH]cnc2n1 ?
5.17e-05

---

protocol-conditions: in water, 303.15 K
metric-name: solubility (mole fraction)
Give bare numbers.

What value of measured solubility (mole fraction) is listed for Nc1nc(Cl)c2[nH]cnc2n1 ?
1.68e-05

---

protocol-conditions: in n-propanol, 288.15 K
metric-name: solubility (mole fraction)
Answers are plain numbers.

// solubility (mole fraction) lookup, key: Nc1nc(Cl)c2[nH]cnc2n1
0.000149
